molecules and their reported Cas9 with SSAP activity (normalized)
Test system: gene editing with Cas9
Assay: Screen of 322 new SSAP proteins, gene editing activity with Cas9 (Table 5)
Format: cell-based
Settings: normalized
Result Type: Cas9 with SSAP activity (normalized)

Molecule	Recorded Value
SSAP_235: SEQ ID NO: 404; Streptomyces sp. adm13(2018) (protein, listed as Streptomyces sp.) SQIGNEIARQSHSPAAIIEQHKADLAVVAASHVRVDTFARLAVGVLRQNEKLAAAAANNPGSLMSALMTAARLGLEPGTEQFYLRPIKRKGQLEVQGIVGYQGIVELIYNAGAAQSVVVEVVRARDEFAWTPGALDEHRPPRWPGAMKQPHHKVDWFGDRGPLVGAYAYAVMQGGAISKVVVLNRDHIARAKAKSDGADTDYSPWRTDEEAMWLKTAARRLGKWVPTSAEKRTGVIERLDTPPAPLNEIDPDEDDEPIDGELVD	−0.970
SSAP_83: SEQ ID NO: 252 (protein) TLQAVCPTQDKAVESQLDQTKFELIKRTICKGTTDDEFQLFIHACKRTGLDPFMRQIFAVKRWDSAERREVMTIQTGIDGYRLIADRTGRYAPGRDAEFGYDAHGGLRWAKAYVKKMTPDGHWHEISATAFWTEYVQTTKDGRPTVFWMKKGHVMLSKCAEALALRKTFPAELSGIYTQEEMAQTMSLPDTKGDSQTIGSDKAYEIERSIDNDPEFKTQLLTRLQRAFGCKSFSDLPQDQFKNVKKVIENHQIKEKIA	−1.189
